Values from patent US20170189409A1

Molecular target: PI3K p110α (Homo sapiens, UniProt P42336)
Sequence (P42336 whole entry): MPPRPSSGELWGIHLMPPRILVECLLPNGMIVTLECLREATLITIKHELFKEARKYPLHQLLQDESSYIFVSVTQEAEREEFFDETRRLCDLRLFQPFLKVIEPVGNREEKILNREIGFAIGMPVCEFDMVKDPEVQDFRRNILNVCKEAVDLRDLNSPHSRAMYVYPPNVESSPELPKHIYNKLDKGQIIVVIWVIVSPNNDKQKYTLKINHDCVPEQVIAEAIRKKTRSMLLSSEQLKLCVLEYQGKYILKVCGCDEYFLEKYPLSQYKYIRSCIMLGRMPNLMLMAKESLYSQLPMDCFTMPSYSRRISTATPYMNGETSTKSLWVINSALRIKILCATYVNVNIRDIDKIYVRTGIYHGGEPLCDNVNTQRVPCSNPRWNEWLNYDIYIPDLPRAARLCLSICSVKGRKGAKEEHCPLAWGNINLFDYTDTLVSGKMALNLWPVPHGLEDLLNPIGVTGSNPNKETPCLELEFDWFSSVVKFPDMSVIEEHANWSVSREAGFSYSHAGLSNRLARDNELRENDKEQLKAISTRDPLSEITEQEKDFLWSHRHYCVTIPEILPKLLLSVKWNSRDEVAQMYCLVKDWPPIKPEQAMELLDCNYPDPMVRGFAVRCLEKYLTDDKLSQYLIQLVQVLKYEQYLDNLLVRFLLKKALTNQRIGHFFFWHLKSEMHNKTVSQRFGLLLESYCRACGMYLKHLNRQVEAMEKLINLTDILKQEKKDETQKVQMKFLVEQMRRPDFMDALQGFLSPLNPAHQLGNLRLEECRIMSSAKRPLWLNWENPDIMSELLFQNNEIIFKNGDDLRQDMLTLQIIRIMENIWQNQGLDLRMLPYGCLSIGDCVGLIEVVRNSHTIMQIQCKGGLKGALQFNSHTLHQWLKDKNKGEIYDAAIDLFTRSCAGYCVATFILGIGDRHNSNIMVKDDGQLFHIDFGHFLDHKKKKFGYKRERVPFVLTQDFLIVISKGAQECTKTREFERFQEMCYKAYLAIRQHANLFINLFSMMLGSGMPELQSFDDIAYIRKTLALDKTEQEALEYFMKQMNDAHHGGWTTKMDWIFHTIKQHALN
Sequence (P27986 whole entry partner): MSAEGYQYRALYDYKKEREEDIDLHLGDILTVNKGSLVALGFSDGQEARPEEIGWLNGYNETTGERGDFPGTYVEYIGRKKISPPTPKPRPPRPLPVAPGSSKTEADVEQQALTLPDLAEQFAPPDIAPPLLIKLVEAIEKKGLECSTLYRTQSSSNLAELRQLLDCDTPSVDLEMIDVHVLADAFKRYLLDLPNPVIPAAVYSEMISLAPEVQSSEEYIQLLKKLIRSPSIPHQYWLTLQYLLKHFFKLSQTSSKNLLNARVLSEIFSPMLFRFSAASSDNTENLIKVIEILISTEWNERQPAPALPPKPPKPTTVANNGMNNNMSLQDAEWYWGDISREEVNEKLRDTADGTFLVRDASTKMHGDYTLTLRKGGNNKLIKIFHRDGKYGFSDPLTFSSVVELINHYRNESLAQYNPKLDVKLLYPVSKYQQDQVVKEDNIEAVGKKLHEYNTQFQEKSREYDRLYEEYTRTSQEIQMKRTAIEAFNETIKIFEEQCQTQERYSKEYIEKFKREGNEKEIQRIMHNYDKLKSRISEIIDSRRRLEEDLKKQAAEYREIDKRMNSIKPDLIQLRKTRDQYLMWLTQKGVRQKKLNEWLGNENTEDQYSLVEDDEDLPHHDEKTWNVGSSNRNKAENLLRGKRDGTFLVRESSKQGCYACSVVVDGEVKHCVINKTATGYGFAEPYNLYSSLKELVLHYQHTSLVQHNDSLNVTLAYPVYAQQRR
MEASURED METRIC: IC50 (µM)
Respond with the bare value in µM.

Query C[C@H](Nc1ncnc(N)c1C#N)c1nn2ccc(C#N)c2c(=O)n1-c1ccccc1 on PI3K p110α (Homo sapiens, UniProt P42336); IC50 returned: 8.22

====

MEASURED METRIC: IC50 (nM)
Please state the figure in nM; there is no need to write the unit.

PI3K p110β (Homo sapiens, UniProt P42338) assay, compound C[C@H](Nc1ncnc(N)c1C#N)c1nn2ccc(C#N)c2c(=O)n1-c1ccccc1 , recorded IC50 = 94.2
